Form field: TGI (one value per entry).
Tested on: DU-145 prostate
Experiment: NCI tumour cell line growth inhibition, 48 h
QUANTITY: TGI

> print(dat)
                                    molecule      value
 1  Cn1c2c(c3ccccc31)CCN(CCCCN1CCN(c3ccccc3)CC1)C2=O   > 100 µM
 2  CCOC(=O)C1=C(C)NC(=O)NC1CN1C(=O)c2ccccc2C1=O (stereo not drawn)   > 100 µM
 3            CCCCN1C(=O)c2c(Br)sc(Br)c2C1=O   > 100 µM
 4  Cc1ccc(OCC2OC(n3cnc4nc(Nc5ccc(Cl)c(Cl)c5)nc(Cl)c43)CC2Oc2ccc(C)cc2)cc1 (stereo not drawn)   > 100 µM
 5         CN(CC(=O)O)Cc1c(O)c(Cl)cc(Cl)c1Cl   > 100 µM
 6  CC(=O)OCC1OC(N2C(c3ccccc3)=CC(c3ccco3)C(C#N)=C2S)C(OC(C)=O)C(OC(C)=O)C1OC(C)=O (stereo not drawn)  > 88.2 µM
 7  N#CC1=C2SCCN2C(=O)C(C#N)C12CCCCC2 (stereo not drawn)   > 100 µM
 8          CC1(C)N=C(N)N=C(N)N1c1ccc(Cl)cc1   > 100 µM
 9               N#CC(C#N)=C1CCOc2ccc(F)cc21    34.6 µM
10              CN(C)C=Nc1c2ccccc2nc2ccccc12    39.7 µM
11  Cc1cc(=O)oc2c(CNC(CO)C(=O)O)c(O)ccc12 (stereo not drawn)   > 100 µM
12      COc1ccc(C(=NN=C(N)N)c2ccc(OC)cc2)cc1    10.8 µM
13            C[C@@H]1C(=O)O[C@H]1[C@H](O)CO   > 100 µM
14  COc1ccc2nc3c([N+](=O)[O-])ccc4c3c(c2c1)NCCN4CCN(C)C    4.91 µM
15  CCc1cnn2c(NCc3ccc[n+]([O-])c3)cc(N3CCCC[C@H]3CCO)nc12    > 10 µM
16  COC1=C(C)C(=O)c2c(c(CCCl)c3n2CCC3OC(C)=O)C1=O (stereo not drawn)    1.69 µM
17           Clc1cc(Cl)c2cc3cccc[n+]3cc2c1Cl      34 µM
18  O=C1CC(c2ccccc2)Cc2nc3ccc(Br)cc3cc21 (stereo not drawn)   > 100 µM
